Reported melting point is given for each of the following compounds.

structure	measured.result
Nn1c(-c2ccc(Cl)cc2)nc2ccccc2c1=O	165 to 166 °C
Nn1c(-c2ccccc2Br)nc2ccccc2c1=O	204 to 206 °C
Nn1c(-c2ccccc2[N+](=O)[O-])nc2ccccc2c1=O	180 to 182 °C
Cc1ccc(-c2nc3ccccc3c(=O)n2N)cc1	294 to 296 °C

Attention now turns to another entry.
stdin: I have this compound here, Nn1c(-c2cccc([N+](=O)[O-])c2)nc2ccccc2c1=O , and I need its recorded melting point.
stdout: 206 to 208 °C

====

molecular target: UniProtKB P00918
measured.property: pKi
Recall that pKi is obtained by taking minus log10 of the concentration measured in molar.

stdin: What pKi appears in the records for this molecule with UniProtKB P00918? Nn1c(-c2cccc([N+](=O)[O-])c2)nc2ccccc2c1=O
stdout: 4.85

====

biological target: bCA-II (Bos taurus, UniProt P00921)
Sequence (P00921 whole entry): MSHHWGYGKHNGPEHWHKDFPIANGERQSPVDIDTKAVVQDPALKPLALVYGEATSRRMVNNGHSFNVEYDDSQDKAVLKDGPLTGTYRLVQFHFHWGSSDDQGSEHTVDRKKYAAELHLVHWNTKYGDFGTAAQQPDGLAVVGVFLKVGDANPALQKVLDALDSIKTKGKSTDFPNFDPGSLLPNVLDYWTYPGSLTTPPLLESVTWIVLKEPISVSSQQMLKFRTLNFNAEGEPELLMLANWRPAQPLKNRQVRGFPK
measured.property: Ki (µM)
Expressed in µM, but write only the number.

stdin: I have this molecule here, Nn1c(-c2cccc([N+](=O)[O-])c2)nc2ccccc2c1=O [Compound 4d] , and I need its recorded Ki.
stdout: 13

====

biological target: bovine carbonic anhydrase-II (bCA-II) (Bos taurus); experiment: In-vitro bCA-II inhibition, spectrophotometric p-nitrophenyl acetate assay; type: biochemical; details: 0.5 mM
measured.property: inhibition at 500 µM (%)

Sample answers from the record:
compound	unit.text	measured.result
COc1ccc(-c2nc3ccccc3c(=O)n2N)cc1 [Compound 4o]	%	19.9
Nn1c(-c2cccc([N+](=O)[O-])c2)nc2ccccc2c1=O [Compound 4d]	%	92.9
Nn1c(-c2ccccc2)nc2ccccc2c1=O [Compound 4a, 3-Amino-2-Phenylquinazolin-4(3H)-one]	%	75.2
Cc1ccc(-c2nc3ccccc3c(=O)n2N)cc1 [Compound 4h]	%	92.4
Nn1c(-c2ccccc2Cl)nc2ccccc2c1=O [Compound 4l]	%	78.2
Nn1c(-c2ccc(Br)cc2)nc2ccccc2c1=O [Compound 4g]	%	85.3
Nn1c(-c2cccc(Cl)c2)nc2ccccc2c1=O [Compound 4m]	%	60
Nn1c(-c2ccc(F)cc2)nc2ccccc2c1=O [Compound 4k]	%	76.3
Nn1c(-c2ccccc2Br)nc2ccccc2c1=O [Compound 4f]	%	88.9
Nn1c(-c2cccc(F)c2)nc2ccccc2c1=O [Compound 4j]	%	78.6

1 = Nn1c(-c2ccccc2[N+](=O)[O-])nc2ccccc2c1=O [Compound 4c]
2 = Nn1c(-c2ccccc2F)nc2ccccc2c1=O [Compound 4i]
3 = Nn1c(-c2ccc(Cl)cc2)nc2ccccc2c1=O [Compound 4n]
stdin: Arrange the 3 compounds by rising inhibition at 500 µM, starting with the smallest. Your reply should list the labels following the order given in the request.
stdout: 2, 3, 1

====

Reported melting point is given for each of the following molecules.

Sample answers from the record:
structure	melting point
Nn1c(-c2ccc([N+](=O)[O-])cc2)nc2ccccc2c1=O	224 to 225 °C
Nn1c(-c2cccc(Cl)c2)nc2ccccc2c1=O	144 to 145 °C
Nn1c(-c2ccccc2Cl)nc2ccccc2c1=O	160 to 162 °C
Nn1c(-c2ccccc2F)nc2ccccc2c1=O	169 to 170 °C
Nn1c(-c2cccc(F)c2)nc2ccccc2c1=O	164 to 165 °C

stdin: I have this molecule here, Nn1c(-c2ccccc2)nc2ccccc2c1=O , and I need its recorded melting point.
stdout: 200 to 202 °C

stdin: I have this molecule here, Nn1c(-c2ccc(F)cc2)nc2ccccc2c1=O , and I need its recorded melting point.
stdout: 176 to 178 °C

stdin: I have this molecule here, Nn1c(-c2ccc(Br)cc2)nc2ccccc2c1=O , and I need its recorded melting point.
stdout: 184 to 185 °C
